- System Under Test: GABA-A receptor; alpha-1/beta-3/gamma-2 (Homo sapiens) (UniProt P14867+P18507+P28472)
- Measurement Protocol: Efficacy against human recombinant GABAA alpha-1 in combination with beta3gamma2 expressed in L(tk-) cells by whole cell patch clamp method
- Format: functional, cell-based
Each item that follows carries a reported Efficacy.
Note: state the figure and append the unit.

Field Efficacy (entry N#Cc1ccccc1-c1cc(-c2cnc3nc(C(F)(F)F)ccn23)ccc1F ) reads 12.4%

Field Efficacy (entry CCO/N=C(\C)c1ccc2c(c1)ncn2-c1cccc(-c2cccnc2)c1 ) reads 42%

Field Efficacy (entry c1ccc(-c2nnc3c4c(c(OCc5ccccn5)nn23)C2CCC4CC2)cc1 ) reads 32%

Field Efficacy (entry N#Cc1ccc(F)cc1-c1cc(-c2cnc3nc(C(F)(F)F)ccn23)ccc1F ) reads 34%

Field Efficacy (entry CC(C)(O)c1ccn2c(-c3ccc(F)c(-c4cccnc4)c3)cnc2n1 ) reads 6.2%

====

- Measurement Protocol: Half life in rhesus monkey
- Type: ADME, organism-based, Macaca mulatta
- Assay Setup: in vivo
Assay Metric: half-life

Field half-life (entry N#Cc1cc(F)ccc1-c1cc(-c2cnc3nc(C(F)(F)F)ccn23)ccc1F ) reads 13.4 h

====

- System Under Test: GABA-A receptor; alpha-3/beta-3/gamma-2 (Homo sapiens) (UniProt P18507+P28472+P34903)
- Measurement Protocol: Efficacy against human recombinant GABAA alpha3 in combination with beta-3-gamma-2 expressed in L(tk-) cells by 36Cl ion flux modulation
- Type: functional, cell-based
Assay Metric: Efficacy (%)
Give the number; % is assumed, so skip it.

                            smiles_notation                         system_under_test  assay_metric  reading
0      Cc1ccn2c(-c3cccc(-c4cccnc4)c3)cnc2c1  GABA-A receptor; alpha-3/beta-3/gamma-2 (Homo sapiens) (UniProt P18507+P28472+P34903)      Efficacy        9
1  CC(C)(O)c1ccn2c(-c3ccc(F)c(-c4ccc(F)cc4C#N)c3)cnc2n1  GABA-A receptor; alpha-3/beta-3/gamma-2 (Homo sapiens) (UniProt P18507+P28472+P34903)      Efficacy       45
2  N#Cc1c(F)cccc1-c1cc(-c2cnc3nc(C(F)(F)F)ccn23)ccc1F  GABA-A receptor; alpha-3/beta-3/gamma-2 (Homo sapiens) (UniProt P18507+P28472+P34903)      Efficacy       56

Let us examine a further case.
Field Efficacy (entry N#Cc1ccccc1-c1cc(F)cc(-c2cnc3nc(C(F)(F)F)ccn23)c1 ) reads 18

====

- Measurement Protocol: Oral bioavailability in rhesus monkey
- Type: ADME, organism-based, Macaca mulatta
- Assay Setup: in vivo
Assay Metric: bioavailability (%)
Give the number; % is assumed, so skip it.

Field bioavailability (entry N#Cc1cc(F)ccc1-c1cc(-c2cnc3nc(C(F)(F)F)ccn23)ccc1F ) reads 49

====

- System Under Test: GABA-A receptor; alpha-3/beta-3/gamma-2 (Homo sapiens) (UniProt P18507+P28472+P34903)
- Measurement Protocol: Efficacy against human recombinant GABAA alpha3 in combination with beta-3-gamma-2 expressed in L(tk-) cells by whole cell patch clamp method
- Type: functional, cell-based
Each item that follows carries a reported Efficacy.
Give the number; % is assumed, so skip it.

Check out these entries, answers already filled in.
>>> df
                            smiles_notation  assay_metric  unit_name  reading
0  c1ccc(-c2nnc3c4c(c(OCc5ccccn5)nn23)C2CCC4CC2)cc1      Efficacy          %     45.6
1  CCO/N=C(\C)c1ccc2c(c1)ncn2-c1cccc(-c2cccnc2)c1      Efficacy          %      127
2  N#Cc1cccc(F)c1-c1cc(-c2cnc3nc(C(F)(F)F)ccn23)ccc1F      Efficacy          %       33
3  CC(C)(O)c1ccn2c(-c3ccc(F)c(-c4cccnc4)c3)cnc2n1      Efficacy          %       57

Field Efficacy (entry N#Cc1ccccc1-c1cccc(-c2cnc3nc(C(F)(F)F)ccn23)c1 ) reads 69

Field Efficacy (entry Cc1ccn2c(-c3cccc(-c4ccccc4C#N)c3)cnc2c1 ) reads 57

Field Efficacy (entry N#Cc1ccccc1-c1cccc(-c2cnc3nc(C(F)(F)F)ccn23)c1F ) reads 43

====

- System Under Test: GABA-A receptor; alpha-1/beta-3/gamma-2 (Homo sapiens) (UniProt P14867+P18507+P28472)
- Measurement Protocol: Efficacy against human recombinant GABAA alpha1 in combination with beta3gamma2 expressed in L(tk-) cells by 36Cl ion flux modulation
- Type: functional, cell-based
Assay Metric: Efficacy (%)
Give the number; % is assumed, so skip it.

>>> df
                            smiles_notation                         system_under_test  reading
0  N#Cc1c(F)cccc1-c1cc(-c2cnc3nc(C(F)(F)F)ccn23)ccc1F  GABA-A receptor; alpha-1/beta-3/gamma-2 (Homo sapiens) (UniProt P14867+P18507+P28472)       31

Field Efficacy (entry Cc1ccn2c(-c3cccc(-c4cccnc4)c3)cnc2c1 ) reads -15

Field Efficacy (entry CC(C)(O)c1ccn2c(-c3ccc(F)c(-c4ccc(F)cc4C#N)c3)cnc2n1 ) reads 45

Field Efficacy (entry N#Cc1ccccc1-c1cc(F)cc(-c2cnc3nc(C(F)(F)F)ccn23)c1 ) reads 4

====

- System Under Test: GABA-A receptor; alpha-5/beta-3/gamma-2 (Homo sapiens) (UniProt P18507+P28472+P31644)
- Measurement Protocol: Efficacy against human recombinant GABAA alpha5 in combination with beta3gamma2 expressed in L(tk-) cells by whole cell patch clamp method
- Assay type: functional, cell-based
Each item that follows carries a reported Efficacy.
Note: state the figure and append the unit.

Field Efficacy (entry CC(C)(O)c1ccn2c(-c3ccc(F)c(-c4cccnc4)c3)cnc2n1 ) reads 20%

Field Efficacy (entry Cc1ccn2c(-c3cccc(-c4ccccc4C#N)c3)cnc2n1 ) reads 1%

Field Efficacy (entry N#Cc1cc(F)ccc1-c1cc(-c2cnc3nc(C(F)(F)F)ccn23)ccc1F ) reads 2%

====

Each item that follows carries a reported clearance.
- Measurement Protocol: Plasma clearance in rat
- Format: ADME, organism-based
Give the number; mL/min/kg is assumed, so skip it.

Field clearance (entry N#Cc1cc(F)ccc1-c1cc(-c2cnc3nc(C(F)(F)F)ccn23)ccc1F ) reads 10.3

Field clearance (entry Cc1ccn2c(-c3cccc(-c4ccccc4C#N)c3)cnc2n1 ) reads 13

Field clearance (entry CC(C)(O)c1ccn2c(-c3ccc(F)c(-c4cccnc4)c3)cnc2n1 ) reads 9.1

Field clearance (entry Cc1ccn2c(-c3cccc(-c4ccccc4C#N)c3)cnc2c1 ) reads 44

====

- System Under Test: GABA-A receptor; alpha-3/beta-3/gamma-2 (Homo sapiens, UniProt P18507+P28472+P34903)
- Sequence (P18507 whole entry): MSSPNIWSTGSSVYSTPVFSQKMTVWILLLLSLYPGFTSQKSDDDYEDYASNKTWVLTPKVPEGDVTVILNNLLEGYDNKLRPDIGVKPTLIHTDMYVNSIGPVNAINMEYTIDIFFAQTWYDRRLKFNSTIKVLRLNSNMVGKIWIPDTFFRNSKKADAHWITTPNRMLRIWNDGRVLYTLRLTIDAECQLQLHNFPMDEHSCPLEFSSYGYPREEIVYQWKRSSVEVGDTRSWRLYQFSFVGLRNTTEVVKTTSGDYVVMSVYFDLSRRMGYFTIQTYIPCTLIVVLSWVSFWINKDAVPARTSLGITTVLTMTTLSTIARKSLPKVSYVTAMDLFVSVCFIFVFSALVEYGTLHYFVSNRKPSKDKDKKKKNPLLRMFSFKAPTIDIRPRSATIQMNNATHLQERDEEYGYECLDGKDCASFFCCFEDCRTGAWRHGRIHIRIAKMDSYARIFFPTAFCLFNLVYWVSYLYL
- Sequence (P28472 whole entry): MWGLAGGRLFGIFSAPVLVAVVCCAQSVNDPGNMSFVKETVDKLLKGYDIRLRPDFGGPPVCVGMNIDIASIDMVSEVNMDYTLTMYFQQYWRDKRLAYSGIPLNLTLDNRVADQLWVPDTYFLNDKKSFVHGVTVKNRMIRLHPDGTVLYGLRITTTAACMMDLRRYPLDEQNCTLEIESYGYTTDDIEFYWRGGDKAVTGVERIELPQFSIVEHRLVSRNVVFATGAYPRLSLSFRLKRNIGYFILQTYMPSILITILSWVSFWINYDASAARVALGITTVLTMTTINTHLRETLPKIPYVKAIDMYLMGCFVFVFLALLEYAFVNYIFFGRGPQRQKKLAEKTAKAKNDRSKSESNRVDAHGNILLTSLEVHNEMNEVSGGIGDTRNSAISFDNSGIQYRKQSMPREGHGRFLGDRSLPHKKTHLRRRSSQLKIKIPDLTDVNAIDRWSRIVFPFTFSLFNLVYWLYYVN
- Sequence (P34903 whole entry): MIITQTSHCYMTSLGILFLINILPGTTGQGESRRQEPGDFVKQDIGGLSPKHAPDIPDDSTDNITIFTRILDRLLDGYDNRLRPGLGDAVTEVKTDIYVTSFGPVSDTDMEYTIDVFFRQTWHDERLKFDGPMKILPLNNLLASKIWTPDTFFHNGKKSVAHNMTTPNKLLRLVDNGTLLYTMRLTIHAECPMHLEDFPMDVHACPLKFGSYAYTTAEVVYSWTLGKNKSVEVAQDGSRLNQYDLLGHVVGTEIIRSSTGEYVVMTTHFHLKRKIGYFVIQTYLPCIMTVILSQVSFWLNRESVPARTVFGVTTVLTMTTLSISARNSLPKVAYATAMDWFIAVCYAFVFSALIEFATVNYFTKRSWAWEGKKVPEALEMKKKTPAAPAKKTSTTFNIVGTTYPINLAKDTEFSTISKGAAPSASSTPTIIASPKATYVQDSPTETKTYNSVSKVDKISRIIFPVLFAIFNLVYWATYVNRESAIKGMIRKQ
- Measurement Protocol: Displacement of [3H]Ro-151788 from human recombinant GABAA alpha3 in combination with beta3gamma2 expressed in L(tk-) cells
Assay Metric: Ki

>>> print(df.to_string())
                            smiles_notation  assay_metric  reading
0  N#Cc1ccc(F)cc1-c1cc(-c2cnc3nc(C(F)(F)F)ccn23)ccc1F            Ki  0.62 nM
1  CCn1ncnc1COc1nn2c(-c3ccccc3F)nnc2cc1C(C)(C)C            Ki   0.3 nM
2  Cn1ncnc1COc1nn2c(-c3cc(F)ccc3F)nnc2cc1C(C)(C)C            Ki   0.7 nM
3  N#Cc1c(F)cccc1-c1cc(-c2cnc3nc(C(F)(F)F)ccn23)ccc1F            Ki   7.6 nM
4  N#Cc1ccccc1-c1cc(-c2cnc3nc(C(F)(F)F)ccn23)ccc1F            Ki  0.34 nM
5  CCO/N=C(\C)c1ccc2c(c1)ncn2-c1cccc(-c2cccnc2)c1            Ki   9.2 nM
6  CC(C)(O)c1ccn2c(-c3ccc(F)c(-c4cccnc4)c3)cnc2n1            Ki     4 nM
7   Cc1ccn2c(-c3cccc(-c4ccccc4C#N)c3)cnc2c1            Ki   3.6 nM
8   Cc1ccn2c(-c3cccc(-c4ccccc4C#N)c3)cnc2n1            Ki  0.37 nM
9  N#Cc1cc(F)ccc1-c1cc(-c2cnc3nc(C(F)(F)F)ccn23)ccc1F            Ki  0.73 nM

Query N#Cc1ccccc1-c1cccc(-c2cnc3nc(C(F)(F)F)ccn23)c1F on GABA-A receptor; alpha-3/beta-3/gamma-2 (Homo sapiens, UniProt P18507+P28472+P34903); Ki returned: 2.6 nM

Query Cc1ccn2c(-c3cccc(-c4cccnc4)c3)cnc2c1 on GABA-A receptor; alpha-3/beta-3/gamma-2 (Homo sapiens, UniProt P18507+P28472+P34903); Ki returned: 16 nM

Query N#Cc1ccccc1-c1cccc(-c2cnc3nc(C(F)(F)F)ccn23)c1 on GABA-A receptor; alpha-3/beta-3/gamma-2 (Homo sapiens, UniProt P18507+P28472+P34903); Ki returned: 0.33 nM

Query N#Cc1ccccc1-c1cc(F)cc(-c2cnc3nc(C(F)(F)F)ccn23)c1 on GABA-A receptor; alpha-3/beta-3/gamma-2 (Homo sapiens, UniProt P18507+P28472+P34903); Ki returned: 14 nM

Query c1ccc(-c2nnc3c4c(c(OCc5ccccn5)nn23)C2CCC4CC2)cc1 on GABA-A receptor; alpha-3/beta-3/gamma-2 (Homo sapiens, UniProt P18507+P28472+P34903); Ki returned: 10 nM

Query N#Cc1cccc(F)c1-c1cc(-c2cnc3nc(C(F)(F)F)ccn23)ccc1F on GABA-A receptor; alpha-3/beta-3/gamma-2 (Homo sapiens, UniProt P18507+P28472+P34903); Ki returned: 0.38 nM

Query CC(C)(O)c1ccn2c(-c3ccc(F)c(-c4ccc(F)cc4C#N)c3)cnc2n1 on GABA-A receptor; alpha-3/beta-3/gamma-2 (Homo sapiens, UniProt P18507+P28472+P34903); Ki returned: 1.3 nM
